Hey, just so you know, these numbers are from patent US20060094693A1.

Test system: Lewis rats
protocol-notes: in vivo
assay-context: Lewis rats, single dose, 5 days observation
recorded-endpoint: MTD (maximum tolerated dose)

{"columns": ["compound", "target-of-assay", "MTD (maximum tolerated dose)"],
 "data": [
  ["O=C(C1CCCN1)N1CCCC1B(O)O (stereo not shown) [Pro-boroPro]", "Lewis rats", "≧2,000 μg/kg"],
  ["C[C@H](N)C(=O)N1CCC[C@H]1B(O)O [Ala-boroPro]", "Lewis rats", "≧2,000 μg/kg"],
  ["NC(N)=NCCC[C@H](N)C(=O)N1CCC[C@H]1B(O)O [Arg-boroPro]", "Lewis rats", "≧2,000 μg/kg"],
  ["CC(C)C[C@H](N)C(=O)N1CCC[C@H]1B(O)O [Leu-boroPro]", "Lewis rats", "200 µg/kg"],
  ["NCCCC[C@H](N)C(=O)N1CCC[C@H]1B(O)O [Lys-boroPro]", "Lewis rats", "≧2,000 μg/kg"]
]}

Form field MTD (maximum tolerated dose), entry N[C@@H](CO)C(=O)N1CCC[C@H]1B(O)O [Ser-boroPro] : 4,000 μg/kg
